testProtocol: recombinant barcode read abundance after kanamycin selection (control-corrected) (log10(CPM+1)); higher = more efficient recombination; sequences stand for … in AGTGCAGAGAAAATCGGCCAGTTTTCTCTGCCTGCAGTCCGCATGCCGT…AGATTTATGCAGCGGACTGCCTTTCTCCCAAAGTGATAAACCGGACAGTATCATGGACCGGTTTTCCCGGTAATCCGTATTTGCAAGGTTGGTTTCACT; site = the 11-nt target;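 note: IS621 recombinase and bridge RNA in Escherichia coli cells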
endpoint: recombinant barcode read abundance (log10)
Enter the number alone.

// solved cases for recombinant barcode read abundance (log10) follow
TCTAAGGCTTGGGTTCTAACCTGTTGCCT (site TCTAAGGCTAG) :: 0.043
CTGGTGTCTTGGGTTCTAACCTGTTGCCA (site CTGTTGTCTTG) :: 0.434
ACATAGTCTTGGGTTCTAACCTGTTGCAG (site CCTTAGTCTCT) :: 0.0322
TTATGGTCTTGGGTTCTAACCTGTTGCTA (site TTATGGTCTTA) :: 0.705
CTTCGCCCTTGGGTTCTAACCTGTTGCTT (site ACAGTGGCTCC) :: 0.0481
GGTGACCCTTGGGTTCTAACCTGTTGCGG (site GGTAACCCTCC) :: 2.05
CATCGGACTTGGGTTCTAACCTGTTGCAG (site CATCGGACTCT) :: 1.48
CAGGAGACTTGGGTTCTAACCTGTTGCCT (site CAGGAGACTAG) :: 1.63

Exercise: Find the measured recombinant barcode read abundance (log10) of GTGCTTACTTGGGTTCTAACCTGTTGCCT (site GTGCTTACTAG) and report it.
Key: 0.538

Exercise: Find the measured recombinant barcode read abundance (log10) of TGGTCGGCTTGGGTTCTAACCTGTTGCAC (site TGGTCGGCTGT) and report it.
Key: 0.385
